assay: physchem; details: aqueous buffer, thermodynamic from solid, apparent solubility
assay-metric: solubility

Q. What does the record list as solubility for CNS(=O)(=O)Cc1ccc2[nH]cc(CCN(C)C)c2c1.O=C(O)CCC(=O)O [Sumatriptan succinate] ?
A. 100 to 115 mg/mL

* * *

test: physchem; settings: pH 5, aqueous buffer, thermodynamic from solid, Apparent solubility, Upper Limit
assay-metric: solubility
Could you write the number and then its unit?

Q. What does the record list as solubility for CNS(=O)(=O)Cc1ccc2[nH]cc(CCN(C)C)c2c1.O=C(O)CCC(=O)O [Sumatriptan succinate] ?
A. 120 mg/mL

* * *

experiment: physchem; conditions: pH 2, simulated gastric fluid, thermodynamic from solid, Apparent solubility, Lower Limit
assay-metric: solubility (mg/mL)
Give just the number in mg/mL; leave the unit off.

Q. What does the record list as solubility for CNS(=O)(=O)Cc1ccc2[nH]cc(CCN(C)C)c2c1.O=C(O)CCC(=O)O [Sumatriptan succinate] ?
A. 149

* * *

Assay: physchem
Conditions: pH 7, aqueous buffer, thermodynamic from solid, Apparent solubility, Lower Limit
Procedure: By apparent solubility is meant the solubility of the sumatriptan determined visually. The materials used were sumatriptan succinate and various reagents for preparation of the buffers. Hydrochloric acid was used for preparation of the pH 2 buffer, acetate for preparation of the pH 5 buffer, phosphate for preparation of the pH 7 buffer, and carbonate for the pH 9 buffer. The concentration of the buffers was 0.1 M. A 1 mL aliquot of each buffer was placed in a glass scintillation vial. […]
assay-metric: solubility (mg/mL)
Give just the number in mg/mL; leave the unit off.

Q. What does the record list as solubility for CNS(=O)(=O)Cc1ccc2[nH]cc(CCN(C)C)c2c1.O=C(O)CCC(=O)O [Sumatriptan succinate] ?
A. 138

* * *

assay: physchem; details: pH 5, aqueous buffer, thermodynamic from solid, Apparent solubility, Lower Limit
assay-metric: solubility

Q. What does the record list as solubility for CNS(=O)(=O)Cc1ccc2[nH]cc(CCN(C)C)c2c1.O=C(O)CCC(=O)O [Sumatriptan succinate] ?
A. 110 mg/mL

* * *

assay: physchem; conditions: pH 9, aqueous buffer, thermodynamic from solid, Apparent solubility, Upper Limit
assay-metric: solubility (mg/mL)
Give just the number in mg/mL; leave the unit off.

Q. What does the record list as solubility for CNS(=O)(=O)Cc1ccc2[nH]cc(CCN(C)C)c2c1.O=C(O)CCC(=O)O [Sumatriptan succinate] ?
A. 140

* * *

experiment: physchem; details: pH 9, aqueous buffer, thermodynamic from solid, Apparent solubility, Lower Limit
assay-metric: solubility (mg/mL)
Give just the number in mg/mL; leave the unit off.

Q. What does the record list as solubility for CNS(=O)(=O)Cc1ccc2[nH]cc(CCN(C)C)c2c1.O=C(O)CCC(=O)O [Sumatriptan succinate] ?
A. 138
